Tested on: HS 578T breast
Experiment: NCI-60 one-dose screen, 48 h (100 = growth as untreated, 0 = no growth, -100 = all killed)
Conditions: 10 µM unless noted
Method: Growth inhibition of the HS 578T human tumor cell line is measured as a screen for anti-cancer activity. Cells are grown in 96 well plates and exposed to the test compound for 48 hours. Compounds are tested at a single concentration, which is 10^-5 M for most compounds. The reported endpoint is percent growth (GI% or GIPRCNT), where numbers from 0 - 100% represent growth inhibition, and numbers from -100% - 0 represent cell death. For example, a value of 40 represents 60% growth inhibition. […]
The panel holds about 83,000 compounds, 20% with a hit somewhere; the sample as a whole holds those more often. Activity calls are given as the source filed them. Rule for the calls: active = growth percent below 10; inactive = the rest.
Result Type: growth

Known growth results, listed for orientation:
| Compound | Value Reported |
| --- | --- |
| Oc1c(Br)cc(Cl)cc1C(c1cc(Cl)cc(Br)c1O)C(Cl)(Cl)Cl | 21.2% (inactive) |
| COC(=O)c1nc(=S)[nH]c(C(=O)OC)c1C(=O)c1ccccn1 | 70.1% (inactive) |
| Oc1c(Br)c(Br)c(O)c(Br)c1Br | 144% (inactive) |

Query (compound): NC(=O)/C=C/C(=O)c1c(Cl)cccc1Cl ; field requested: growth -7.11% (active)

Query (compound): c1ccc2c(c1)Nc1cc3ccccc3cc1N2 ; field requested: growth 53.4% (inactive)

Query (compound): CN(C)CCOc1ccc2c(c1)C(=O)/C(=C\c1ncc([N+](=O)[O-])n1C)C2 ; field requested: growth 21.1% (inactive)

Query (compound): O=C1c2ccccc2C(=O)N1c1ccccc1 ; field requested: growth 119% (inactive)

Query (compound): O=C1c2ccccc2C(=O)c2sc(Nc3ccc(Cl)cc3)nc21 ; field requested: growth 70.6% (inactive)

Query (compound): CCCCCC(CCCCC)C(=O)O ; field requested: growth 104% (inactive)

Query (compound): Nc1nc(N)c2c(ccc3c2ccn3Cc2cccc([N+](=O)[O-])c2)n1 ; field requested: growth -58.2% (active)

Query (compound): CNc1ccc(N)cc1 ; field requested: growth 109% (inactive)

Query (compound): Nc1nc(N)c2nc(CNc3ccc(C(=O)NC(CCC(=O)O)C(=O)O)cc3)cnc2n1 (stereo not drawn) ; field requested: growth 90.5% (inactive)

Query (compound): O=C1c2ccccc2C(=O)c2sc(Nc3cccc(Cl)c3)nc21 ; field requested: growth -8.09% (active)

###

test system: SNB-75 CNS; assay: NCI-60 one-dose screen, 48 h; settings: 10 µM unless noted
The panel holds about 83,000 compounds, 20% with a hit somewhere; the sample as a whole holds those more often. Activity calls are given as the source filed them. How the source made its calls: active means growth percent below 10; inactive means the rest.
Outcome field: choose from y (active), n (inactive)

These solved cases illustrate the format of a correct answer.
| Compound | Target Or System | Discrete Label |
| --- | --- | --- |
| O=C(CC1(O)C(=O)Nc2c(Cl)ccc(Cl)c21)c1ccc(Cl)cc1Cl (stereo unspecified) | SNB-75 CNS | n |
| C1=C(c2ccccc2)C(c2ccc(OCCN3CCCCC3)cc2)Oc2ccccc21 (stereo unspecified) | SNB-75 CNS | n |
| NC1=CC(=O)c2ccccc2C1=O | SNB-75 CNS | n |
| CC1(C)CC([P+](c2ccccc2)(c2ccccc2)c2ccccc2)=NN1 | SNB-75 CNS | n |
| CCOc1ccc(-c2nc3ccc(-c4nc5ccc(N6CCN(C)CC6)cc5[nH]4)cc3[nH]2)cc1 | SNB-75 CNS | y |
| CN(Cc1cnc2nc(N)nc(N)c2n1)c1ccc(C(=O)NC(CCC(=O)O)C(=O)O)cc1 (stereo unspecified) | SNB-75 CNS | n |

Record lookup: outcome of this test for S=C(NCCNC(=S)[S][Sn]([c]1ccccc1)([c]1ccccc1)[c]1ccccc1)[S][Sn]([c]1ccccc1)([c]1ccccc1)[c]1ccccc1 ? y

Record lookup: outcome of this test for N#CSCc1ccc(CSC#N)c(Cl)c1 ? n

Record lookup: outcome of this test for CCN1/C(=C\c2cc[n+](CC)c3ccccc23)C=Cc2ccccc21 ? n

###

tested on: NCI-H23 lung; experiment: NCI-60 one-dose screen, 48 h (100 = growth as untreated, 0 = no growth, -100 = all killed); conditions: 10 µM unless noted
Compounds without any hit were thinned out: in the full panel of roughly 83,000, 20% have a hit. Activity calls are given as the source filed them. How the source made its calls: active means growth percent below 10; inactive means the rest.
Result Type: growth

| Compound | Value Reported |
| --- | --- |
| CCC(=O)Sc1ccccc1C(=O)Nc1ccc(Cl)cc1 | 46.1% (inactive) |

Query (compound): O=C(/C=C\c1cc(Br)ccc1O)/C=C/c1cc(Br)ccc1O ; field requested: growth -11.9% (active)

Query (compound): CCN(CC)CC(C)(C)C(=O)/C=C/c1ccc(Cl)c(Cl)c1 ; field requested: growth 7.58% (active)

Query (compound): CC(=Nc1ccc(N(C)C)cc1)c1ccccc1 ; field requested: growth 66.4% (inactive)

Query (compound): CC(=O)C(=Cc1ccc(C=C(C(C)=O)C(C)=O)cc1)C(C)=O ; field requested: growth 4.19% (active)

Query (compound): O=C(Nc1ccc(F)cc1)ON=C1CCCCC1 ; field requested: growth 110% [100 µM] (inactive)

###

The compounds listed here are annotated with their growth.
System: UO-31 renal
Test: NCI-60 one-dose screen, 48 h (100 = growth as untreated, 0 = no growth, -100 = all killed)
Settings: 100 µM
Experimental: Growth inhibition of the UO-31 human tumor cell line is measured as a screen for anti-cancer activity. Cells are grown in 96 well plates and exposed to the test compound for 48 hours. Compounds are tested at a single concentration, which is 10^-5 M for most compounds. The reported endpoint is percent growth (GI% or GIPRCNT), where numbers from 0 - 100% represent growth inhibition, and numbers from -100% - 0 represent cell death. For example, a value of 40 represents 60% growth inhibition. […]
The panel holds about 83,000 compounds, 20% with a hit somewhere; the sample as a whole holds those more often. Active and inactive are the calls of the source. How the source made its calls: active means growth percent below 10; inactive means the rest.

Known growth results, listed for orientation:
| Molecule | Result Type | Value Reported |
| --- | --- | --- |
| O=C(Nc1c(Cl)cccc1Cl)Oc1cccc2cccnc12 | growth | 6.51% (active) |
| CN(C)C(=O)c1ccc(SC(=S)NCc2ccccc2)cc1 | growth | -67.4% (active) |
| O=C(O)c1c(Cl)c(Cl)c(Cl)c(Cl)c1-c1c2cc(I)c(=O)c(I)c-2oc2c(I)c(O)c(I)cc12 | growth | 49.8% (inactive) |

Continue with the next compound.
Hello, I am looking for reported growth with UO-31 renal for COc1ccc(-c2cscc2N)cc1 . Could you help? 27% (inactive)

###

The compounds listed here are annotated with their growth.
tested on: NCI-H23 lung; assay: NCI-60 one-dose screen, 48 h (100 = growth as untreated, 0 = no growth, -100 = all killed); conditions: 10 µM
Compounds without any hit were thinned out: in the full panel of roughly 83,000, 20% have a hit. Calls of active or inactive are those of the source. The calls were made as follows: active = growth percent below 10; inactive = the rest.

| Molecule | growth |
| --- | --- |
| CN(C)C(=O)c1ccc(SC(=S)NCc2ccccc2)cc1 | 109% (inactive) |
| COc1cc(NS(C)(=O)=O)ccc1Nc1c2ccccc2nc2ccccc12 | -3.53% (active) [middle of 4 runs] |

Query (compound): O=C(Nc1cccc(Br)c1)Oc1cccc2cccnc12 ; field requested: growth 106% (inactive)

Query (compound): O=C(Nc1c(Cl)cccc1Cl)Oc1cccc2cccnc12 ; field requested: growth 36.5% (inactive)

###

system: HOP-62 NSCLC; experiment: NCI-60 one-dose screen, 48 h; conditions: 10 µM unless noted
About 83,000 compounds went through this panel and 20% of them were active in at least one assay; those are over-represented in the sample as a whole. Calls of active or inactive are those of the source. Rule for the calls: active = growth percent below 10; inactive = the rest.
Outcome field: choose from True = active, False = inactive

These solved cases illustrate the format of a correct answer.
| Molecule | Discrete Label |
| --- | --- |
| CCOC(=O)/C(=C\c1ccc(-c2ccccc2)cc1)C(C)=O | False |
| CC1OC(OC2C(OC3CCC4(C)C(CCC5(C)C4CC=C4C6CC(C)(C)CCC6(CO)C(O)CC45C)C3(C)C)OC(C(=O)O)C(OC3OC(COC4OC(CO)C(O)C(O)C4O)C(O)C(O)C3O)C2O)C(O)C(O)C1O (stereo unspecified) | True |
| Cn1c2c(c3ccccc31)CCN1C[C@@H]3CCCC[C@H]3C[C@@H]21 | False |
| O=[N+]([O-])c1ccc2c(N=Nc3ccc4ccccc4c3O)c(O)cc(S(=O)(=O)O)c2c1 | False |

Record lookup: outcome of this test for NC(=S)N/N=C\c1nccc2c(C(F)(F)C(F)(F)C(F)(F)F)cccc12 ? True

Record lookup: outcome of this test for COc1ccc(N=N/N=c2\sc3cc(OC)ccc3n2C)cc1 ? False

Cited source for all entries: PubChem BioAssay (NCI)
